Tested on: A549 lung cancer cells
Test: In vitro antitumor MTT assay, A549
Format: cell-based, human
Conditions: Homo sapiens, A549, 24 h, read-out: IC50 A549
Listed next: entries and their corresponding pIC50.
Kindly note that pIC50 refers to -log10 of the concentration in mol/L and answer with the value alone.

Cc1ccc(NC(=O)CN2CCN(c3nc4ccccc4[nH]c3=O)CC2)cc1 [Compound 13e] ... 4.90
O=C(CN1CCN(c2nc3ccccc3[nH]c2=O)CC1)Nc1ccccc1 [Compound 13a] ... 4.95
O=C(CN1CCN(c2nc3ccccc3nc2Cl)CC1)Nc1ccc(Cl)cc1 [Compound 10c] ... 5.02
CC(=O)c1ccc(NC(=O)CN2CCN(c3nc4ccccc4[nH]c3=O)CC2)cc1 [Compound 13f] ... 4.95
O=C(CN1CCN(c2nc3ccccc3[nH]c2=O)CC1)Nc1ccc([N+](=O)[O-])cc1 [Compound 13g] ... 4.98

Name the recorded pIC50 for Cc1ccc(NC(=O)CN2CCN(c3nc4ccccc4nc3Cl)CC2)cc1 [Compound 10e] . 4.94

Name the recorded pIC50 for CC(=O)c1ccc(NC(=O)CN2CCN(c3nc4ccccc4nc3Cl)CC2)cc1 [Compound 10f] . 4.99

Name the recorded pIC50 for O=C(CN1CCN(c2nc3ccccc3[nH]c2=O)CC1)Nc1ccc(F)cc1 [Compound 13d] . 4.87

Name the recorded pIC50 for "O=C(CN1CCN(c2nc3ccccc3[nH]c2=O)CC1)NCc1ccccc1" . 4.83

Name the recorded pIC50 for CNC(=O)c1cc(Oc2ccc(NC(=O)Nc3ccc(Cl)c(C(F)(F)F)c3)cc2)ccn1 [Sorafenib, reference compound] . 4.85

Name the recorded pIC50 for O=C(CN1CCN(c2nc3ccccc3nc2Cl)CC1)Nc1ccccc1 [Compound 10a] . 5.04

Name the recorded pIC50 for O=C(CN1CCN(c2nc3ccccc3[nH]c2=O)CC1)Nc1ccc(Cl)cc1 [Compound 13c] . 4.89

Name the recorded pIC50 for "O=C(CN1CCN(c2nc3ccccc3nc2Cl)CC1)NCc1ccccc1" . 4.97

Name the recorded pIC50 for O=C(CN1CCN(c2nc3ccccc3nc2Cl)CC1)Nc1ccc([N+](=O)[O-])cc1 [Compound 10g] . 5.08

Name the recorded pIC50 for O=C(CN1CCN(c2nc3ccccc3nc2Cl)CC1)Nc1ccc(F)cc1 [Compound 10d] . 4.96
